Source: the array DNA melting data of Ke et al. (doi:10.1101/2024.01.08.574731)

Assay: folding enthalpy; higher = less favourable; fluorescence melt of hairpins on a sequencing array, two-state fit
Settings: sodium 0.088 M
Listing of entries alongside the reported folding enthalpy.
# number only, unit kcal/mol dropped from output

Worked cases, answers included:
- ORDERED_RESIDUES: "GATCGAGGGTCGATC ((((((...))))))"
  folding enthalpy (kcal/mol): -32.3
- ORDERED_RESIDUES: "GATCTGAGGACAGATC ((((((....))))))"
  folding enthalpy (kcal/mol): -26.1

Measured folding enthalpy, GACAGGACGAAAGTCGTC (((..(((....)))))) : -16.7

Given item GTGGGGGGAAACTCCCGC (.(((.(....).))).) , the value recorded as its folding enthalpy is -21.4

// sample GTGAAAGGAAACTTTCAC (((((((....))))))) , its folding enthalpy was -50.6

The reported value for GTTTGAGGAAACTCGAAC (((.(((....))).))) in terms of folding enthalpy is -31.7

Note to self: folding enthalpy recorded for GTGTAATCGAAAGATCAC (((..(((....)))))) was -23.9

So for GGTACGGGAAACCGTACC (((((((....))))))) , the logged folding enthalpy turned out to be -33.4

Sample GTGCTCCCGAAAGGGCAC (((..(((....)))))) ; folding enthalpy observed: -19.9

Looking up GACTTGGGAAACCAAGTC (((((((....))))))) , I see its folding enthalpy listed as -35.8

GCTGGGCGAAAGCTCTGC ((.(.((....)).).)) yielded folding enthalpy of -22.3

Looking up GCGGCCCACCGC ((((....)))) , I found its folding enthalpy recorded as -19.6

----------
Assay: melting temperature; fluorescence melt of hairpins on a sequencing array, two-state fit, raised by 9.35 °C to match UV melts
Conditions: sodium 0.088 M
Binary call on Tm with cut-off 50 °C: strictly below means fulfilled, and equality or higher means not fulfilled.

Solved cases below.
- ORDERED_RESIDUES: "GCCTTCGAAAGAAAGGC ((((((....))).)))"
  CAT: "not fulfilled"
- ORDERED_RESIDUES: "GACTGCGAAAGCAGGGTC ((((((....)))..)))"
  CAT: "not fulfilled"
- ORDERED_RESIDUES: "GGTTCTGGAAACAGAACC (((((((....)))))))"
  CAT: "not fulfilled"
- ORDERED_RESIDUES: "GGTTCAGGAAACCGAACC (((((.(....).)))))"
  CAT: "fulfilled"
- ORDERED_RESIDUES: "GTAAGTGGAAACACCTAC (((.(((....))).)))"
  CAT: "fulfilled"
- ORDERED_RESIDUES: "CGCCATCGGAAACGAGCG (((..(((....))))))"
  CAT: "fulfilled"
- ORDERED_RESIDUES: "GGGCTAGGAAACCAGCCC (((((.(....).)))))"
  CAT: "not fulfilled"
- ORDERED_RESIDUES: "GTAGCGTCGAAAGACTAC (((..(((....))))))"
  CAT: "fulfilled"

Dear reviewer, please state whether GTGGCTGGAAACGGTCAC (((.(.(....).).))) has Tm strictly beneath 50 °C. fulfilled

Check if Tm falls below 50 °C for GATCTCAGCAGAGATC ((((((....)))))) . not fulfilled

Given CGTGAGCGGAAACGCACG (((..(((....)))))) , is recorded Tm strictly lower than 50 °C? fulfilled
